Molecular target: Tyrosinase (Agaricus bisporus, UniProt O42713)
Sequence (O42713 whole entry): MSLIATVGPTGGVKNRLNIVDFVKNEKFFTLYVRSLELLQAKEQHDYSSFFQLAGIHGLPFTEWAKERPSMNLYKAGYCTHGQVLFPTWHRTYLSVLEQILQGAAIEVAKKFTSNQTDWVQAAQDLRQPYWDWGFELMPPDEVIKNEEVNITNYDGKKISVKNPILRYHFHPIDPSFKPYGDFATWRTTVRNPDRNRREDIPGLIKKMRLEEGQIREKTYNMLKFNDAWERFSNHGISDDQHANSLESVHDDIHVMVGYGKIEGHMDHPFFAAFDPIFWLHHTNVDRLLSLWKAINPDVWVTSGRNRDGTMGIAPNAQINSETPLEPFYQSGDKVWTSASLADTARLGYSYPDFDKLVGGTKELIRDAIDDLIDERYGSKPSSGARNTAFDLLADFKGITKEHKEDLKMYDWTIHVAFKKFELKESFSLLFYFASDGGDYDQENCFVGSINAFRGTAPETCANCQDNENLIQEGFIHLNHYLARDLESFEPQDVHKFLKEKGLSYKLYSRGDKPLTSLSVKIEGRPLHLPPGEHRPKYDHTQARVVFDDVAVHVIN
reported.metric: pKi
pKi here is simply -log10 of the concentration when that concentration is written in mol/L.

Query string: Item under review: CC(=S)Nc1ccccc1 . Reported pKi?
Result string: 5.92
